target: PI3Kβ (Homo sapiens, UniProt P42338); construct: purchased DiscoveRx Corporation, San Diego (contract service, KINOMEscan); experiment: Enzyme binding assay (KINOMEscan, DiscoveRx); conditions: PIK3Cβ_h, read-out: Kd PIK3Cβ_h
Sequence (P42338 whole entry): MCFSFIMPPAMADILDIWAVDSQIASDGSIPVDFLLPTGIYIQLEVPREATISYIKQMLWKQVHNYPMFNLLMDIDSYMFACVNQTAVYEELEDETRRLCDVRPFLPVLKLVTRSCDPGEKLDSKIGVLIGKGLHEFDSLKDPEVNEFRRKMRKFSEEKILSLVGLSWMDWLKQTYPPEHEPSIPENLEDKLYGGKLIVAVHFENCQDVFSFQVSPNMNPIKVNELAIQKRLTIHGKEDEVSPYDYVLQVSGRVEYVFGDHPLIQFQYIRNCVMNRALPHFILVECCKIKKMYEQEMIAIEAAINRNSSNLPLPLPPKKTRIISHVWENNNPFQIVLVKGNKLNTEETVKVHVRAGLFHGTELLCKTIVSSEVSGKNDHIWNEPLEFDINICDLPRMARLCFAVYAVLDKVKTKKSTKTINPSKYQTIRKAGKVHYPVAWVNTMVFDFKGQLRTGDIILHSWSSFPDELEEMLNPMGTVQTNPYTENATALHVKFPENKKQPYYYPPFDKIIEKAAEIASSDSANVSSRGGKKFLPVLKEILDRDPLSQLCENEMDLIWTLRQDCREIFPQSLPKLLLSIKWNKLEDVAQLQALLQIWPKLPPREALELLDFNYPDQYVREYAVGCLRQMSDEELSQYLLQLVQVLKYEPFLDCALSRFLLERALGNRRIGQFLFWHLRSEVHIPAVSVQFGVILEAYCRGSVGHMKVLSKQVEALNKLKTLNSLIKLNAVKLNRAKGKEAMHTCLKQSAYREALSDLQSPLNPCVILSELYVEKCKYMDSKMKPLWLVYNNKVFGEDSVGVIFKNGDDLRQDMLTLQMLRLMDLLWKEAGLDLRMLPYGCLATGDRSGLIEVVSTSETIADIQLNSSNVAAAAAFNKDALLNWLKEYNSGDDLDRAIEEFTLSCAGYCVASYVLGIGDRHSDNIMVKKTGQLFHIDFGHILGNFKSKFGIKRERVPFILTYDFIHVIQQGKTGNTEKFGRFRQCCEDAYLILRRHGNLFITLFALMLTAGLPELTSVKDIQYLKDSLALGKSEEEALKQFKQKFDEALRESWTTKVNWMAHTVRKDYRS
pKd: −log10 of the molar value.
# binarize pKd: threshold 8 inclusive, high side satisfied, low side not satisfied

# compound, class
data = [
    ("COc1cc(F)cc(N2CCCC2c2cc(C(=O)N(C)C)cc3ncc(N4CCOCC4)nc23)c1 (stereo not shown)", "satisfied"),
    ("O=C(c1cc(C2CCCN2c2cc(F)cc(F)c2)c2nc(N3CCOCC3)cnc2c1)N1CC(CO)C1 (stereo not shown)", "satisfied"),
    ("CC(Nc1cc(F)cc(F)c1)c1cc(CO)cc2ncc(N3CCOCC3)nc12 (stereo not shown) [Compound 84]", "satisfied"),
    ("CNCCNC(=O)c1cc(C(C)Oc2ccc(F)c(F)c2)c2nc(N3CCOCC3)cnc2c1 (single isomer, unassigned) [Compound 344a]", "satisfied"),
]

Here's the next entry for you.
Q: Is it the case that CC(Oc1ccc(F)c(F)c1)c1cc(C(=O)N2CC[C@@H](N(C)C)C2)cc2ncc(N3CCOCC3)nc12 (single isomer, unassigned) [Compound 298b] has pKd reaching or exceeding 8?
Result: not satisfied
